Endpoint: IC50. System: full-length DNMT1 (Homo sapiens, UniProt P26358). Items follow.
Sequence (P26358 whole entry): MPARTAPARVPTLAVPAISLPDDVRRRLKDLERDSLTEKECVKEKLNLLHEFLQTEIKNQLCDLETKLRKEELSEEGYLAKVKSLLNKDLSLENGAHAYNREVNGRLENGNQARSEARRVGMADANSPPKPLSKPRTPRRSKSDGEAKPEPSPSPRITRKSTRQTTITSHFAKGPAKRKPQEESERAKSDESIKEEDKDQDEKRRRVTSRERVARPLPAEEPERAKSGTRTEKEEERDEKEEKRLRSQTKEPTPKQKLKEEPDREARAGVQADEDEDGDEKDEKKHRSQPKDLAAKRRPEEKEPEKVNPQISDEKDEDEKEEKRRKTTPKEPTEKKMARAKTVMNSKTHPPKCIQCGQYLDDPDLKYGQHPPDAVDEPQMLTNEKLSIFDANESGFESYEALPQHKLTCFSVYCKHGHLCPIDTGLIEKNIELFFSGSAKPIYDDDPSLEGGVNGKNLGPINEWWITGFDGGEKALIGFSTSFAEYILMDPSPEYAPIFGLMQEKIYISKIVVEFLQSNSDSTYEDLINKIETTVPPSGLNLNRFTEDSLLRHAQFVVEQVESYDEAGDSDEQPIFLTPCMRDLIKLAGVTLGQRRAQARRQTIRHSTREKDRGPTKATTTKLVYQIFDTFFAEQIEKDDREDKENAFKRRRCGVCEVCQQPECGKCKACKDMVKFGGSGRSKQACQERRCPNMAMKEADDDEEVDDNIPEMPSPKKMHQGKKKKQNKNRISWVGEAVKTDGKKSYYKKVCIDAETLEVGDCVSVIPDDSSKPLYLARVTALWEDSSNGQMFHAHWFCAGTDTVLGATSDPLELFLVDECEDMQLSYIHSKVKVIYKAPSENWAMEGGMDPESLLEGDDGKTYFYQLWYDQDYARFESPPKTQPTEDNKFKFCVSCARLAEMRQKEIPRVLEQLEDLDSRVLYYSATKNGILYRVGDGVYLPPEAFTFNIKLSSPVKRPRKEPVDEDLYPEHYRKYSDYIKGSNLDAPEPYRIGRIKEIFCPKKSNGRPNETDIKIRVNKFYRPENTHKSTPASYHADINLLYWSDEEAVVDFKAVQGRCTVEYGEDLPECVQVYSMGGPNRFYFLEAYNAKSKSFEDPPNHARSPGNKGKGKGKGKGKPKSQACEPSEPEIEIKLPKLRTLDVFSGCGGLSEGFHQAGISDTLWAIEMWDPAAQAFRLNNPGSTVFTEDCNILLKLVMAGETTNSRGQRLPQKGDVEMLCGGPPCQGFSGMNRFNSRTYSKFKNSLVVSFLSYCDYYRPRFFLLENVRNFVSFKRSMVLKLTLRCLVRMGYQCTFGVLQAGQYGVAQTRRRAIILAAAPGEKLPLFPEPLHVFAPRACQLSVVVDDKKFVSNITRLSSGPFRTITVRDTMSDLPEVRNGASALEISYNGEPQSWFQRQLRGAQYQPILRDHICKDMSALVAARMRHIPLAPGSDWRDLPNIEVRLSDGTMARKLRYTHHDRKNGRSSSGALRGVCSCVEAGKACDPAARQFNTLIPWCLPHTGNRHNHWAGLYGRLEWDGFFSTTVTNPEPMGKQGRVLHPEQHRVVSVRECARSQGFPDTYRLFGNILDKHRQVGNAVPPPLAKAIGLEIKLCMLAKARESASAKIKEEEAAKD

*Q* Return IC50 for the following compound: CCc1c(C#N)c(SC(C(N)=O)c2ccc(C(F)(F)F)cc2)nc(N2CCC(N)CC2)c1C#N (stereo not drawn)
*A* 30 to 60 nM

*Q* Return IC50 for the following compound: CCc1c(C#N)c(SC(C(N)=O)c2ccccc2)nc(N2CCCN(CCO)CC2)c1C#N (stereo not drawn)
*A* 30 to 60 nM

*Q* Return IC50 for the following compound: CCc1c(C#N)c(SCc2ccc(CNC(=O)CN)cc2)nc(N2CCCN(C)CC2)c1C#N
*A* 30 to 60 nM

Each recorded value in this set is attributed to paper PMC9177618.
